System: arrhythmias induced by ischemic cardiac dysfunction caused by ligation of the coronary arteries of a perfusing heart
PROTOCOL_NOTES: Anti-arrhythmic effect: protection against arrhythmias induced by ischemia (coronary artery ligation and re-perfusion) of a perfusing heart, method of Opie et al
Set-up: species or system male rats of Sprague-Dawley strain
CONDITION_SUMMARY: rat perfusing heart, test compound administered intravascularly; read-out: ED70 (concentration required for 70% suppression of the arrhythmias during ligation and after re-perfusion)
REPORTED_ENDPOINT: EC70 (µg/mL)

>>> print(df.to_string())
                                   compound  display_unit  meas_value
0  N[C@@H]1Cc2c3n(c4ccccc24)C(=O)C[C@H]2CC[C@@H]1[C@@H]32 (relative stereo)         µg/mL        0.64
1  N[C@@H]1Cc2c3n(c4ccccc24)C(=O)C[C@H]2CCCC[C@@H]1[C@@H]32 (relative stereo)         µg/mL         0.9
2  CC[C@@]12CC[C@H]3[C@H](N)Cc4c(n(c5ccccc45)C(=O)C1)[C@H]32 (relative stereo)         µg/mL        0.23
3  CN(C)[C@@H]1Cc2c3n(c4ccccc24)C(=O)C[C@H]2CC[C@@H]1[C@@H]32 (relative stereo)         µg/mL         0.3
4  N[C@@H]1Cc2c3n(c4ccccc24)C(=O)C[C@H]2CCC[C@@H]1[C@@H]32 (relative stereo)         µg/mL           1
